target: ΔF508-CFTR (Homo sapiens, UniProt P13569, DEL508-508); construct: host or cells: CFBE41o-, doxycycline-inducible; test: CFTR cell surface levels using HRP-tagged ΔF508-CFTR expressing CFBE cells, intrinsic corrector capacity; format: cell-based; conditions: HRP-tagged ΔF508-CFTR CFBE41o- cells, compounds alone (intrinsic corrector capacity), 20 hours at 33° C.; read-out: EC50
Sequence (P13569 with tags, fused parts or gaps DEL508-508): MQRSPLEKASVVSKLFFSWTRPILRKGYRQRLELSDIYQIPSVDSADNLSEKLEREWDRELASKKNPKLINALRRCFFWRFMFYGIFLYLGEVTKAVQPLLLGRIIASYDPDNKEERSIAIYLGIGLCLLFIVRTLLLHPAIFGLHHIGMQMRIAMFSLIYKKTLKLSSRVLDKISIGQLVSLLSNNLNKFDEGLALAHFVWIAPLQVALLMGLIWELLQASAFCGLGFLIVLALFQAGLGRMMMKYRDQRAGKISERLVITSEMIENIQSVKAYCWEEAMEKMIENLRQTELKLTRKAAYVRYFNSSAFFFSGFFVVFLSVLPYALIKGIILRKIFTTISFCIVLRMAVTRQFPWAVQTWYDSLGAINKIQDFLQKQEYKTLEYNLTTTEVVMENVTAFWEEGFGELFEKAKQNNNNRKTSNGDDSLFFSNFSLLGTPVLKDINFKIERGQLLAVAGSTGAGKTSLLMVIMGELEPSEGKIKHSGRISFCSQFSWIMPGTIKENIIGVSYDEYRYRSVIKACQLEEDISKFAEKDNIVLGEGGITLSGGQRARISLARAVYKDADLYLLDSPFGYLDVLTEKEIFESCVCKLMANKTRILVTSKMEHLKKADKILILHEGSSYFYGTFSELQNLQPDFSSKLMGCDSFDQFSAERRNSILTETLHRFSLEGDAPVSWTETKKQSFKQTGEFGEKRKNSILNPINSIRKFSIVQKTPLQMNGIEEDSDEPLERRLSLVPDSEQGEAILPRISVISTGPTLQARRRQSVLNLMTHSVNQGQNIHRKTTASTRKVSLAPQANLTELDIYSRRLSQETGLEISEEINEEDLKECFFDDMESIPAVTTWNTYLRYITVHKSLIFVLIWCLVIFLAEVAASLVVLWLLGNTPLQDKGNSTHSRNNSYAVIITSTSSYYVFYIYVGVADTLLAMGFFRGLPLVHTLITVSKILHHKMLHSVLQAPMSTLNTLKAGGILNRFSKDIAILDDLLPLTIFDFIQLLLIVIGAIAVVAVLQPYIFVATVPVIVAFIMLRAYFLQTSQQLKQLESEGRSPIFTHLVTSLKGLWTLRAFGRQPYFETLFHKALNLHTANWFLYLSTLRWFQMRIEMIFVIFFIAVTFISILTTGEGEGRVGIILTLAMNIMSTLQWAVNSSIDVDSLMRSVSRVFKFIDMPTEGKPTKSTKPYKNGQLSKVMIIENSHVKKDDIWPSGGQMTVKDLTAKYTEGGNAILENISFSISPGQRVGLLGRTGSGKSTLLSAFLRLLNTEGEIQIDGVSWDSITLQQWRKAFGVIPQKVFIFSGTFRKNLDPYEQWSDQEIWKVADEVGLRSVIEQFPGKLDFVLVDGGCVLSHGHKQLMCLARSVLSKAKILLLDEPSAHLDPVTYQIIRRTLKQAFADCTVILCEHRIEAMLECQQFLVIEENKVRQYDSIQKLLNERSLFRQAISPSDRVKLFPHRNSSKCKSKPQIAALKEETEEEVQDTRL
pEC50: −log10 of the molar value.
Note to self: values exactly at 6 are TRUE. So pEC50 at or above 6 is TRUE, below is FALSE.

Observe how each entry below is paired with its result.
Cc1nn(-c2cccc(C(N)=O)c2)c2nc(C(=O)O)cc(-c3ccc(N4CCOCC4)cc3)c12 [compound 59]; FALSE
CC(C)c1nn(-c2cccc(N3CCC3)c2)c2nc(C(=O)O)cc(-c3ccc(N(C)C4CCOCC4)cc3)c12 [compound 240]; TRUE
CC(C)c1nn(C2CCCCC2)c2nc(C(=O)O)cc(-c3cnn(C(C)C)c3)c12 [compound 361]; FALSE

Okay, next one:
Assess whether reported pEC50 for Cc1nn(-c2ccccc2)c2nc(C(=O)O)cc(OCC3CCCC3(F)F)c12 (centres unmarked) [compound 389] sits at 6 or higher. FALSE
